Target: GSK-3β (Homo sapiens)
Construct: gene GSK3B
Sequence (P49841 whole entry): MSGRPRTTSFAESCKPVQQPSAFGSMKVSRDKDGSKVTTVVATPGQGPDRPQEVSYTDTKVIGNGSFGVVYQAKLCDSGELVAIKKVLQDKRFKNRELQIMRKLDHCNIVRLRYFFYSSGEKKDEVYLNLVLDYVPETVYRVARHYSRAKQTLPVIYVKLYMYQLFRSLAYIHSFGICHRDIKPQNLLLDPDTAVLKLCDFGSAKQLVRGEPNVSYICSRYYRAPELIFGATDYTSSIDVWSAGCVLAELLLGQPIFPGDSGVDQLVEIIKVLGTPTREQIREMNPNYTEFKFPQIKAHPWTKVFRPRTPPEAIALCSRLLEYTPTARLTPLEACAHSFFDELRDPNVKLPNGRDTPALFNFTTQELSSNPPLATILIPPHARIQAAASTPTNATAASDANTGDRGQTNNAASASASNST
Assay: Kinase-Glo luminescent kinase assay, single concentration […]
Format: biochemical
Details: read-out: % of Inhibition
measure: inhibition at 50 µM (%)

                                   compound              measure  value
0  CN1CCC2=CCC3OC(O)c4cc5c(cc4C3C21)OCO5 (stereo not shown) [compound 27, Oduline]  inhibition at 50 µM   57.7
1  CO[C@@H]1C=C[C@@]23c4cc5c(cc4CN(C[C@@H]2O)[C@H]3C1)OCO5 [compound 3, Haemanthamine]  inhibition at 50 µM   52.4
2  COc1cc2c(cc1OC)[C@H]1[C@H]3C(=CC[C@H]1OC2=O)CCN3C [compound 22, Homolycorine]  inhibition at 50 µM   54.4
3  CCOC1OC2CC=C3CCN(C)C3C2c2cc(OC)c(OC)cc21 (stereo not shown) [compound 26, O-Ethyllycorenine]  inhibition at 50 µM   57.7

These entries and their values trace back to paper PMC6017564.
